test_target: RANTES (E66S mutant of human RANTES) (human)
protocol_summary: NMR titration
Square brackets hold non-standard residues; d marks the D form. Ends that are not written are not given here. sY = N[C@@H](Cc1ccc(OS(=O)(=O)O)cc1)C(=O)O
endpoint_name: Kd (µM)
One number for each entry, in µM.

For this binder ( MDYQVSSPI[sY]DIN[sY]YTSEPAQKINVKQ [Nt-CCR5 peptide (CCR5 residues 1-27), sulfated at Y10 and Y14] ), measured Kd is 100
